Entry source: patent US20220073618A1

List of Span (best-fit value) of IL-2 release, mixed lymphocyte reaction values.
# tested-system: human PD-L1 on cell surface (human, UniProt Q9NZQ7 19-290); note: unit not given here
# Sequence (Q9NZQ7 19-290): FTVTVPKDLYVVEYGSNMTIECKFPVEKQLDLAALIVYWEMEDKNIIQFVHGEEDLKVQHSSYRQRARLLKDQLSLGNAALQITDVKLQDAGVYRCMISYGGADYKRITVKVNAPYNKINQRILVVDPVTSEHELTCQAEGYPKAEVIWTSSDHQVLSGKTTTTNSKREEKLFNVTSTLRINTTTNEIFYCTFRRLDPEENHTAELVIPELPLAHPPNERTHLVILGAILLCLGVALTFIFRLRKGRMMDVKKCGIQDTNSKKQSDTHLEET
# test-name: cell-based or functional assay

{"binder": "AH01946 (antibody, human IgG1, V domains shown, also called mPD-L1Ab-CBM clone AH01946) VH: QVQLQESGPGLVKPSQTLSLTCTVSGYSITSGYTWHWIRQHPGKGLEWIGYIHYSGSTKYNPSLKSRVTISRDTSKNQFSLKLSSMTAADTAVYYCARNSLFASWGQGTLVTVSS VL: DIVLTQSPDSLAVSLGERATINCRASESVDTYGDSFMHWFQQKPGQPPKLLIYRASNLESGVPDRFSGSGSGTDFTLTISSVQAEDVAVYYCQQSNEAPYTFGGGTKLEIK", "val": 866}

Q: Specify reported Span (best-fit value) of IL-2 release, mixed lymphocyte reaction for the binder shown: AH01963 (antibody, human IgG1, V domains shown, also called mPD-L1Ab-CBM clone AH01963) VH: QVQLQESGPGLVKPSQTLSLTCTVSGYSITSGYTWHWIRQHPGKGLEWIGYIHYSGSTKYNPSLKSRVTISRDTSKNQFSLKLSSVTAADTAVYYCARNSLFASWGQGTLVTVSS VL: DIVLTQSPDSLAVSLGERATINCRASESVDTYGDSFMHWYQQKPGQPPKLLIYRASNLESGVPDRFSGSGSGTDFTLTISSVQAEDVAVYYCQQSNEAPYTFGGGTKLEIK
A: 930

Q: Respond only with Span (best-fit value) of IL-2 release, mixed lymphocyte reaction recorded for AH01950 (antibody, human IgG1, V domains shown, also called mPD-L1Ab-CBM clone AH01950) VH: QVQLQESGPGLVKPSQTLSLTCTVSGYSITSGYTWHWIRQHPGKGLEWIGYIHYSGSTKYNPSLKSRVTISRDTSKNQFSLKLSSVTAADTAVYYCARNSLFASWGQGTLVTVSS VL: DIVLTQSPDSLAVSLGERATINCRASESVDTYGDSFMHWFQQKPGQPPKLLIYRASNLESGVPDRFSGSGSGTDFTLTISSLQAEDVAVYYCQQSNEAPYTFGGGTKLEIK
A: 950

Q: Indicate the recorded Span (best-fit value) of IL-2 release, mixed lymphocyte reaction value for this binder: AH02029 (antibody, human IgG1, V domains shown, also called mPD-L1Ab-5BM clone AH02029) VH: QVQLQESGPGLVKPSQTLSLTCTVTGYSITSGYTWHWIRQHPGKGLEWIGYIHYSGSTKYNPSLKSRVSISRDTSKNQFSLKLSSVTAADTAVYYCARNSLFASWGQGTLVTVSS VL: DIVLTQSPDSLAVSLGERATINCRASESVDTYGDSFMHWYQQKPGQPPKLLIYRASNLESGVPDRFSGSGSGTDFTLTISSLQAEDVAVYYCQQSNEAPYTFGGGTKLEIK
A: 1020
